Where these numbers come from: patent US20120295982A1

Test: Phase I open-label single-dose crossover oral bioavailability / PK test of bedoradrine sulfate in healthy volunteers
Assay type: in vivo, human
Conditions: human two, in vivo, iv, 300 ug, CL, individual subject
Where a name gives a salt, the structure may show the parent alone.
endpoint.label: clearance (mL/min)

> print(dat)
                                   compound  endpoint.label  unit.abbrev  observed
1  CN(C)C(=O)COc1ccc2c(c1)C[C@@H](NC[C@H](O)c1ccc(O)c(CCO)c1)CC2 [MN-221, bedoradrine sulfate]       clearance       mL/min       252

---

Assay: Phase I open-label single-dose crossover oral bioavailability / PK test of bedoradrine sulfate in healthy volunteers
Type: in vivo, human
Settings: human one, in vivo, iv, 300 ug, CL, individual subject
Counter-ions that a name gives are not always drawn.
endpoint.label: clearance (mL/min)

> print(dat)
                                   molecule  endpoint.label  unit.abbrev  observed
1  CN(C)C(=O)COc1ccc2c(c1)C[C@@H](NC[C@H](O)c1ccc(O)c(CCO)c1)CC2 [MN-221, bedoradrine sulfate]       clearance       mL/min       423

---

Test: Phase I open-label single-dose crossover oral bioavailability / PK test of bedoradrine sulfate in healthy volunteers
Type: in vivo, human
Conditions: female, human, in vivo, iv, 300 ug, AUC0-24 h range
Method: The test was an open-label, randomized, crossover, single dose test of 600 μg (0.6 mg) bedoradrine sulfate in liquid form administered orally and of 300 μg (0.3 mg) bedoradrine sulfate administered by i.v. infusion. […] The limit of quantitation (LLOQ) for these methods was 30.3 picogram (pg)/mL. […] All plasma concentrations below the limit of quantitation (BLQ) values occurring at predose and up to the first measurable concentration may otherwise be imputed as 1 pg/mL in some analyses or LLOQ. […]
Structures can show the parent of a compound that is named as a salt.
endpoint.label: AUC(0-t)

> print(dat)
                                   molecule  endpoint.label              observed
1  CN(C)C(=O)COc1ccc2c(c1)C[C@@H](NC[C@H](O)c1ccc(O)c(CCO)c1)CC2 [MN-221, bedoradrine sulfate]        AUC(0-t)  13.9 to 15.5 ng·h/mL

---

Test: Phase I open-label single-dose crossover oral bioavailability / PK test of bedoradrine sulfate in healthy volunteers
Format: in vivo, human
Conditions: female, human, in vivo, po, 600 ug, AUC0-24 h mean
Counter-ions that a name gives are not always drawn.
endpoint.label: AUC(0-t) (ng·h/mL)

> print(dat)
                                   compound  endpoint.label  observed
1  CN(C)C(=O)COc1ccc2c(c1)C[C@@H](NC[C@H](O)c1ccc(O)c(CCO)c1)CC2 [MN-221, bedoradrine sulfate]        AUC(0-t)      1.45

---

Test: Phase I open-label single-dose crossover oral bioavailability / PK test of bedoradrine sulfate in healthy volunteers
Assay type: in vivo, human
Settings: human one, in vivo, iv, 300 ug, Tmax, individual subject
Where a name gives a salt, the structure may show the parent alone.
endpoint.label: Tmax

> print(dat)
                                   compound  endpoint.label  observed
1  CN(C)C(=O)COc1ccc2c(c1)C[C@@H](NC[C@H](O)c1ccc(O)c(CCO)c1)CC2 [MN-221, bedoradrine sulfate]            Tmax    15 min
